For each of the variants below, state its 8OG:A repair function score.
B1: library; numbered along this chain (parent)
chain: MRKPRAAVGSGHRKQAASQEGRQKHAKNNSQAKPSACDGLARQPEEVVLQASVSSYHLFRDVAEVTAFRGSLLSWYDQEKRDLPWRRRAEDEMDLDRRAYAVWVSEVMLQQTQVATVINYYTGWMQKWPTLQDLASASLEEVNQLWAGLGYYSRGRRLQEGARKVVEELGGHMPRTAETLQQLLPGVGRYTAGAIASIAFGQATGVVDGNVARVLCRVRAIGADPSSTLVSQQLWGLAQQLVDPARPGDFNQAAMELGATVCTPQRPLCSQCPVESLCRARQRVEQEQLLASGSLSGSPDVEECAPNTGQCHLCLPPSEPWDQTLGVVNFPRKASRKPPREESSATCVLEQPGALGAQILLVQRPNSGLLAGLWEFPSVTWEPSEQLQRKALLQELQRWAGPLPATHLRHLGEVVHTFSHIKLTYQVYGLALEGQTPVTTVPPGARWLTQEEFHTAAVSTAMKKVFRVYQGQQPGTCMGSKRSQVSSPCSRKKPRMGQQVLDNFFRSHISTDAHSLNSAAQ

Variants of: B1
Assay: 8OG:A repair function score (normalized; synonymous = 0, nonsense = -1) (normalized log-likelihood score); higher = more repair activity (WT-like);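 note: cells sorted at 72 h after reporter transfection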
Settings: with 8OG:A DNA repair reporter (GFP) in HEK-293 MUTYH KO cells
Could you respond with only the numeric value?

Sample T228S — what was its 8OG:A repair function score?
0.124

Sample G471L — what was its 8OG:A repair function score?
-0.0292

Sample Q358K — what was its 8OG:A repair function score?
0.0561

Sample D208T — what was its 8OG:A repair function score?
-1.03

Sample Q388H — what was its 8OG:A repair function score?
-0.356

Sample A101K — what was its 8OG:A repair function score?
-0.0477

Sample P316L — what was its 8OG:A repair function score?
-0.126

Sample S276D — what was its 8OG:A repair function score?
0.00885

Sample S384L — what was its 8OG:A repair function score?
-0.000173

Sample Y76R — what was its 8OG:A repair function score?
-1.37

Sample Q252L — what was its 8OG:A repair function score?
-0.863

Sample E375L — what was its 8OG:A repair function score?
-0.83

Sample A280W — what was its 8OG:A repair function score?
-0.57

Sample G412V — what was its 8OG:A repair function score?
-0.894

Sample M173D — what was its 8OG:A repair function score?
-0.926

Sample S419L — what was its 8OG:A repair function score?
-0.749

Sample R69W — what was its 8OG:A repair function score?
-3.43

Sample A405C — what was its 8OG:A repair function score?
0.144

Sample F330A — what was its 8OG:A repair function score?
-0.791

Sample E385Q — what was its 8OG:A repair function score?
0.29

Sample K3V — what was its 8OG:A repair function score?
-0.0444

Sample C262F — what was its 8OG:A repair function score?
-1.14

Sample C278W — what was its 8OG:A repair function score?
-1.05

Sample Q111V — what was its 8OG:A repair function score?
-0.38

Sample L131F — what was its 8OG:A repair function score?
0.00215

Sample V485N — what was its 8OG:A repair function score?
-0.00234

Sample A135T — what was its 8OG:A repair function score?
-0.165

Sample Q202V — what was its 8OG:A repair function score?
-0.0323

Sample S343H — what was its 8OG:A repair function score?
0.00619

Sample R97N — what was its 8OG:A repair function score?
0.00607

Sample D96W — what was its 8OG:A repair function score?
-0.378

Sample D96G — what was its 8OG:A repair function score?
-0.0459

Sample A457R — what was its 8OG:A repair function score?
-0.672

Sample R506Q — what was its 8OG:A repair function score?
-0.052

Sample A147N — what was its 8OG:A repair function score?
-0.0408

Sample Q144E — what was its 8OG:A repair function score?
-0.0907

Sample I421Q — what was its 8OG:A repair function score?
-0.51

Sample L183W — what was its 8OG:A repair function score?
-0.0703

Sample S490L — what was its 8OG:A repair function score?
0.0149

Sample K493S — what was its 8OG:A repair function score?
0.0155

Sample F250K — what was its 8OG:A repair function score?
-1.03

Sample V438K — what was its 8OG:A repair function score?
-0.0297

Sample D249G — what was its 8OG:A repair function score?
-0.675

Sample A220H — what was its 8OG:A repair function score?
-0.555

Sample R97V — what was its 8OG:A repair function score?
0.00683

Sample G356S — what was its 8OG:A repair function score?
-0.118
